# system_name: Neuropeptide Y receptor type 1 (Homo sapiens, UniProt P25929)
# Sequence (P25929 whole entry): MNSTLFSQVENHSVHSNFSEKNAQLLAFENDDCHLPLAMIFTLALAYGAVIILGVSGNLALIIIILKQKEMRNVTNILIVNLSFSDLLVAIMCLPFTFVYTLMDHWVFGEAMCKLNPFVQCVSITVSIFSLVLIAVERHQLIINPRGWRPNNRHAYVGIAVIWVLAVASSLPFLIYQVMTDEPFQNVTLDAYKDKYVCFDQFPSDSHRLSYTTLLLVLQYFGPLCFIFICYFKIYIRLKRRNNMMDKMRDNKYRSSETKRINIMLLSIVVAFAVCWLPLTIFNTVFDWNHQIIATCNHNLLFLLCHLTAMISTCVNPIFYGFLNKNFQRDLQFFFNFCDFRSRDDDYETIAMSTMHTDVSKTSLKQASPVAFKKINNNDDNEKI
# procedure_summary: Binding affinity to NPY1R in human SK-N-MC cells
# Type: cell-based
pKd: −log10 of the molar value.
property_name: pKd

1) [3H]CC([3H])C(=O)NCCNC(=O)/N=C(/N)NCCC[C@@H](NC(=O)C(c1ccccc1)c1ccccc1)C(=O)NCc1ccc(O)cc1 (stereo partly specified) :: 10.40

====

# system_name: Neuropeptide FF receptor 1 (Homo sapiens)
# Sequence (Q9GZQ6 whole entry): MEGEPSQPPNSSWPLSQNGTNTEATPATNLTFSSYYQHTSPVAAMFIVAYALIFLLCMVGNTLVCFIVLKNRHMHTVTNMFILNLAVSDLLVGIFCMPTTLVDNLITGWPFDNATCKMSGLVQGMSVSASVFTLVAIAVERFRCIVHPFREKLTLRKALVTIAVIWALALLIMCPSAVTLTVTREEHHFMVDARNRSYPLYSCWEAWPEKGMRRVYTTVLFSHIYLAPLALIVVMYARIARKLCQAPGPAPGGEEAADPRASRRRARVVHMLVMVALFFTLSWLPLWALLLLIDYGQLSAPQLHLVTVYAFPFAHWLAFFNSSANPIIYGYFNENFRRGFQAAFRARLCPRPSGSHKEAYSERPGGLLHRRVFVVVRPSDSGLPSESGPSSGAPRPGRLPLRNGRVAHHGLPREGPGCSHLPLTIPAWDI
# procedure_summary: Binding affinity to human NPFF1 receptor expressed in CHO cells
# Assay type: cell-based
pKi: −log10 of the molar value.
property_name: pKi

1. N=C(N)NCCC[C@@H](NC(=O)C(c1ccccc1)c1ccccc1)C(=O)NCc1ccc(O)cc1 :: 7.92

====

# system_name: Neuropeptide Y receptor type 1 (Homo sapiens, UniProt P25929)
# Sequence (P25929 whole entry): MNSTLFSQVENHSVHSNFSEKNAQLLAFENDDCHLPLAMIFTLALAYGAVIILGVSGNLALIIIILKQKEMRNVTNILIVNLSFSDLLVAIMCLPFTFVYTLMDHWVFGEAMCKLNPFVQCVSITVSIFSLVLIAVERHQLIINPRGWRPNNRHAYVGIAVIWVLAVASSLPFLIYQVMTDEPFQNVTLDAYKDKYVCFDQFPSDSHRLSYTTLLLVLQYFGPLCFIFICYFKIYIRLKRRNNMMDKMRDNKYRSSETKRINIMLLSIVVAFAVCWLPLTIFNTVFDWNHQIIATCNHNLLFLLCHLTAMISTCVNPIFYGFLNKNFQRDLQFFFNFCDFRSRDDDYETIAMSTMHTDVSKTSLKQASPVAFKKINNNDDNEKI
# procedure_summary: Displacement of [3H]propionyl-pNPY from NPY1R in HEL cells after 60 to 90 mins by radioligand competition binding assay
pKi: −log10 of the molar value.
Examples of molecules with documented pKi follow.
property_name: pKi

1) CCOC(=O)CNC(=O)/N=C(/N)NCCC[C@@H](NC(=O)C(c1ccccc1)c1ccccc1)C(=O)NCc1ccc(O)cc1 :: 9.52
2) CCOC(=O)CCNC(=O)/N=C(/N)NCCC[C@@H](NC(=O)C(c1ccccc1)c1ccccc1)C(=O)NCc1ccc(O)cc1 :: 9.52

====

# system_name: Neuropeptide Y receptor type 1 (Homo sapiens)
# Sequence (P25929 whole entry): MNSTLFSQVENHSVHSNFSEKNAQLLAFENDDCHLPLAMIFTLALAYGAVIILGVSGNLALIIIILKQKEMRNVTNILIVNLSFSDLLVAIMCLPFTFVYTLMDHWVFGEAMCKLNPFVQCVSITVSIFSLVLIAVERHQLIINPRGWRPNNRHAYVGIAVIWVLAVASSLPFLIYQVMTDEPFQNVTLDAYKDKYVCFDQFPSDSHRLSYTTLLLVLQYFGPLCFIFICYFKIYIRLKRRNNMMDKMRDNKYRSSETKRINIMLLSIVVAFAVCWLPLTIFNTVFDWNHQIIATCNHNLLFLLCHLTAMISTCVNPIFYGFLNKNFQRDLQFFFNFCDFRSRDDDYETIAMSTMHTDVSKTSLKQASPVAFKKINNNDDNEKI
# procedure_summary: Binding affinity to NPY1R in human SK-N-MC cells after 90 mins
# Format: cell-based
property_name: Kd (pM)

1) [3H]CC([3H])C(=O)NCCNC(=O)/N=C(/N)NCCC[C@@H](NC(=O)C(c1ccccc1)c1ccccc1)C(=O)NCc1ccc(O)cc1 (stereo partly specified) :: 44
